target: T1, LILRB2 (antigen in solution, Octet RED 96) (UniProt Q8N423 22-460, limits assumed); test: BLI (Octet RED 96), antibody on protein A biosensor, LILRB2 in solution
T1 construct: also called LILRB2 solution
Below is a list of entries, each paired with its recorded kon value.

INPUT: Item under review: B2-16 (antibody, V domains shown, also called B2-16_HC; B2-16_LC) VH: QVQLVQSGAEVKKPGSSVKVSCKASGGTFSSYAISWVRQAPGQGLEWMGGIIPIFGTANYAQKFQGRVTITADESTSTAYMELSSLRSEDTAVYYCASGIIPDNPYGMDVWGQGTMVSVSS VL: DIVMTQSPLSLPVTLGQPASISCTSSQSLVYSDGNTYLNWFHQRPGQSPRRLFYKVSNRASGVPDRFSGSGSGTDFTLKISRVEAEDLGVYYCMQGTHWPVTFGQGTRLEIK . Reported kon?
OUTPUT: 121000 M⁻¹ s⁻¹

INPUT: What do you have for HCB2-10 (antibody, V domains shown, also called HCB2-10_HC; HCB2-10_LC) VH: QVQLVESGGGLVQPGGSLRLSCAASGFTFSNYAMSWVRQAPGKGLEWVSAISGSSISTYYADSVKGRFTISRDNSKNTLYLQMNSLRAEDTAVYYCASSGFGSFDYWGQGTLVTVSS VL: QPPSVSAAPRQRVTISCSGSSSNIGDNSVNWYQQLPGKAPKLLIYLDDLLPSGVSGRFSGSKSGTSASLVISGLQSEDEADYYCATWDDSLNGVVFGGGTKVTVL ?
OUTPUT: 703000 M⁻¹ s⁻¹

INPUT: Can you handle B2-15 (antibody, V domains shown, also called B-15; B2-15_HC) VH: EVQLVQSGAEVKKSGASVKVSCKSSGYTFTNYGISWVRQAPGQGLEWMGWISGDAGDTKFAQKFQGRVTMTTDTSTTTTYMELRSLRSDDTAVYYCARDGEYIPMFRGFDNYYGLDVWGQGTLVSVSS VL: QSVLTQPPSASATPGQRVTISCSGRNANIGSNPVNWYQQLPGTAPRLVMYSNNQRPSGVPDRFSGSKSGTSASLAISGLQSEDEADYYCEGWDDSLNGYVFGTGTKVTVL next?
OUTPUT: 299000 M⁻¹ s⁻¹

New cases:
INPUT: Consider the binder shown here: B2-7 (antibody, V domains shown, also called B2-7_HC; B2-7_LC) VH: EVQLVESGGGVVQPGRSLRLSCAASGFTISSYGMHWVRQAPGKGLEWVAVISYDGSNKYYADSVKGRFTISRDNSKNTLYLQMNSLRVEDTAVYYCAKDLLLRYFDWSPKYYYNGMDVWGQGTMVTVSS VL: QSVLTQPPSVSVAPGKTARITCGGNNIGSKSVHWYQQKPGQAPVLVVYDDSDRPSGIPERFSGSNSGNTATLTISRVEAGDEADYYCQVWDSSSDHPGVFGTGTKVTVL What is its recorded kon?
OUTPUT: 200000 M⁻¹ s⁻¹
